Target System: recombinant human PIM1 (Homo sapiens (Human), UniProt P11309)
Sequence (P11309 whole entry): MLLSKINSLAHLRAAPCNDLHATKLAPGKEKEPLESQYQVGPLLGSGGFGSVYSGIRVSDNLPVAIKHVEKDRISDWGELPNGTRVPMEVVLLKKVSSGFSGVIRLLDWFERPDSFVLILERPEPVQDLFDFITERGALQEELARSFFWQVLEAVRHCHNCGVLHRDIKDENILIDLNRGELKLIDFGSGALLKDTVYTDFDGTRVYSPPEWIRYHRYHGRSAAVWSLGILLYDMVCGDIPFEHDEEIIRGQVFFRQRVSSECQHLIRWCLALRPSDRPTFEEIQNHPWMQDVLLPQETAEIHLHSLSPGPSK
Run Description: PIM-1 kinase activity in cell-free in vitro assay
Assay type: biochemical
Measurement Setup: 500 nM compound, cell-free assay; read-out: PIM-1: % inh 500 nM
Property Label: inhibition at 0.5 µM (%)

* CC(C)(C)OC(=O)NCCCNc1nc2cc(C#N)ccc2c2sccc12 | -30.8
* C#Cc1cccc(Nc2nc3cc(C(=O)O)ccc3c3ccncc23)c1 | 46.6
* N#Cc1ccc2c(c1)nc(Cl)c1cscc12 | -20.3
* O=C(O)c1ccc2c(c1)nc(NC1CC1)c1nc(NCCc3ccccc3)ncc12 | -11.1
* CC1CCCCN1CCCNc1ncc2c(n1)c(Nc1ccc(F)c(Cl)c1)nc1cc(C(=O)O)ccc12 (stereo not drawn) [drawing 1629] | 38.9
* O=C(O)c1ccc2c(c1)nc(Nc1ccc(F)c(Cl)c1)c1nc(NCc3ccccn3)ncc12 | 59.1
* CN1CCC(N(C)c2nc3cc(CNC(=O)Nc4cccc(Cl)c4)ccc3c3sccc23)C1 (stereo not drawn) | -38.5
* CN1CCCN(c2nc3cc(C#N)ccc3c3sccc23)CC1 | -10

P: O=C(O)c1ccc2c(c1)nc(NC1CC1)c1nc(Nc3ccc(F)c(Cl)c3)ncc12
Q: CCN(CC)CCNc1ncc2c(n1)c(Nc1ccccc1)nc1cc(C(=O)O)ccc12
Pick the one with the larger inhibition at 0.5 µM: P vs Q Lab note: record the label of whichever item you select.
P

###

Target System: each individual kinase of the panel (Homo sapiens, UniProt Q12866)
Sequence (Q12866 21-999 limits assumed): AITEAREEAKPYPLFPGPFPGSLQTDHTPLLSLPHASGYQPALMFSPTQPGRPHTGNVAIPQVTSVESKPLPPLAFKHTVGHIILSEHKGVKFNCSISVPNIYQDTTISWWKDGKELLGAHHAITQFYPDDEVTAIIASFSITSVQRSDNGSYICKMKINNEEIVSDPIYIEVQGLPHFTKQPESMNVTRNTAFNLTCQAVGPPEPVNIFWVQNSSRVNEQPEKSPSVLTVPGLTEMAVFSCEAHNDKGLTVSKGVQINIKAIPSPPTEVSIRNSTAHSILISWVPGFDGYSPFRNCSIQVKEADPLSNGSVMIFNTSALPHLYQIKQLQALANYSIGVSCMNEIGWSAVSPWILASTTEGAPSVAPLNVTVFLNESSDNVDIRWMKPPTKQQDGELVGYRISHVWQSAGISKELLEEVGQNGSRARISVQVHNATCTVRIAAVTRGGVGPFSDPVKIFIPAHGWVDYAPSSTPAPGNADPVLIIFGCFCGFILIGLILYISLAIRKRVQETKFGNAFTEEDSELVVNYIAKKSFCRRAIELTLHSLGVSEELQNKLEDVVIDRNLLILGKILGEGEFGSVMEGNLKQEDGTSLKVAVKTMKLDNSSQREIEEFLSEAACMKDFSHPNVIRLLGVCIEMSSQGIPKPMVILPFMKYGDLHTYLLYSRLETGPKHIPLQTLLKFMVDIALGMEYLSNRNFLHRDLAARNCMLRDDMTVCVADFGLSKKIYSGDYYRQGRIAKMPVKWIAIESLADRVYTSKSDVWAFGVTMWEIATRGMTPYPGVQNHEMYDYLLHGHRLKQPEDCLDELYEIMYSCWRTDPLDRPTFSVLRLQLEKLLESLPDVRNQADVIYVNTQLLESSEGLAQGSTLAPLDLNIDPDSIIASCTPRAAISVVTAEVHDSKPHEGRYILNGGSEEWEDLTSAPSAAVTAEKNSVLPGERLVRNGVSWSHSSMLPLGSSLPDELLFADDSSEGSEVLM
Run Description: Standardized radiometric kinase assays, percentage of activity at 0.5 μM;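 also: Read-out is ³³P-labelled substrate protein phosphorylated by each kinase, captured on filters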
Property Label: MER percentage of activity (%)

Some solved cases for reference:
* O=C(O)c1ccc2c(c1)nc(Nc1cccc(Cl)c1)c1ccncc12 [drawing 1136] | 82
* NC(=O)c1ccc2c(c1)nc(Nc1cccc(Cl)c1)c1ccncc12 [drawing 1138] | 62

I: C#Cc1cccc(Nc2nc3cc(C(=O)O)ccc3c3cnccc23)c1 [drawing 1137]
II: C#Cc1cccc(Nc2nc3cc(C(=O)O)ccc3c3cncnc23)c1 [drawing 1135]
Of I versus II , which is the one with smaller reported MER percentage of activity? Use the label to indicate which entry you chose.
II
(II: 54%, I: 86%)

###

Measured IC50 by item
Test system: HCT-116 human colorectal carcinoma cells
Run Description: Cell-proliferation assay using Alamar Blue dye
Assay type: cell-based
Measurement Setup: Homo sapiens, HCT-116, read-out: HCT-116 (uM), cell proliferation modulatory activity, HCT-116, second column

Worked examples follow.
• O=C(O)c1ccc2c(c1)nc(Nc1cc(F)ccc1F)c1ccsc12 = > 10 µM
• Fc1cc(Cl)cc(Nc2nc3cc(-c4nnn[nH]4)ccc3c3sccc23)c1 = > 10 µM
• O=C(O)c1ccc2c(c1)nc(Nc1cccc(Br)c1)c1ccsc12 = > 10 µM
• Cc1cc(CNC(=O)c2cccc(Nc3nc4cc(-c5nnn[nH]5)ccc4c4sccc34)c2)no1 [drawing 1507] = > 10 µM
• CNC(=O)Cc1cccc(Nc2nc3cc(C(=O)O)ccc3c3sccc23)c1 = > 10 µM

# returns recorded IC50 (system: HCT-116 human colorectal carcinoma cells) for O=C(O)c1ccc2c(c1)nc(NCCc1cccc(Cl)c1)c1ccncc12 [drawing 1559]
> 10 µM

Cool, now O=C(O)c1ccc2c(c1)nc(Nc1cc(Cl)cc(Cl)c1)c1ccsc12
8.76 µM

// repeat for O=C(O)c1ccc2c(c1)nc(Nc1cccc(C(=O)N3CCOCC3)c1)c1ccsc12 and report
> 10 µM

Now the molecule CCCNC(=O)c1cccc(Nc2nc3cc(C(=O)O)ccc3c3sccc23)c1
> 10 µM

Same lookup for NS(=O)(=O)c1cccc(Nc2nc3cc(-c4nnn[nH]4)ccc3c3sccc23)c1 , please.
10 µM

###

Documented IC50 across a set of molecules
Tested on: HCT-116 human colorectal carcinoma cells
Run Description: Cell-proliferation assay using Alamar Blue dye;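 also: cells exposed to compound for about 4 days, then Alamar Blue added and dye fluorescence read after about 4 h, compared with medium-only control wells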
Format: cell-based
Measurement Setup: Homo sapiens, HCT-116, second HCT-116 column (c8); read-out: HCT-116 (uM) cell proliferation modulatory activity

Before answering, review these 5 worked examples.
• N#Cc1ccc2c(c1)nc(Nc1cccc(C(F)(F)F)c1)c1cscc12 = > 10 µM
• CN(c1ccccc1)c1nc2cc(C(=O)O)ccc2c2cnccc12 = > 10 µM
• N#Cc1ccc2c(c1)nc(NCc1ccccn1)c1ccsc12 = > 10 µM
• Cc1ccccc1Nc1nc2cc(C(=O)O)ccc2c2cnc(NC3CC3)nc12 = 10 µM
• N#Cc1ccc2c(c1)nc(NCCn1ccnc1)c1ccsc12 = > 10 µM

Shift focus to the following entry.
Entry under review: CN(C)C(=O)c1ccc2c(c1)nc(N(C)c1ccccc1)c1nc(NC3CC3)ncc12 . Reported IC50?
5.19 µM

###

Target System: recombinant human PIM1 (Homo sapiens (Human))
Run Description: PIM-1 kinase activity in cell-free in vitro assay
Assay type: biochemical
Measurement Setup: 500 nM compound, cell-free; read-out: PIM-1: % inh 500 nM
Property Label: inhibition at 0.5 µM (%)

A selection of reference data follows.
* CCOC(=O)c1cccc(Nc2nc3cc(-c4nnn[nH]4)ccc3c3sccc23)c1 | 34
* C#Cc1cccc(Nc2nc3cc(C(=O)O)ccc3c3sccc23)c1 | 26
* N#Cc1ccc2c(c1)nc(Cl)c1ccsc12 [drawing 1398] | -20.2
* CN(C)CCNc1nc2cc(C#N)ccc2c2ccccc12 | -63.6
* CC(C)(C)OC(=O)CCNC(=O)c1cccc(Nc2nc3cc(-c4nnn[nH]4)ccc3c3sccc23)c1 | -11.7

1: O=C(O)CNc1nc2cc(C(=O)O)ccc2c2sccc12
2: O=C(O)c1ccc2c(c1)nc(NCCCc1ccccc1)c1ccncc12 [drawing 1561]
3: N#Cc1ccc2c(c1)nc(Nc1ccccc1)c1ccncc12
Reorder: inhibition at 0.5 µM, max to min. # format: label list in the order the request specifies
2, 3, 1
(2: 69.7%, 3: 2.12%, 1: -26.1%)

A: N#Cc1ccc2c(c1)[nH]c(=O)c1ccncc12
B: COC(=O)c1ccc2c(c1)nc(Nc1ccccc1)c1nc(S(C)(=O)=O)ncc12
// pick larger inhibition at 0.5 µM from pair: A vs B Your choice should be expressed through its label.
A

P: O=C(O)c1ccc2c(c1)nc(Nc1cccc(S(=O)(=O)NC3CC3)c1)c1ccsc12
Q: O=C(NCc1cccnc1)c1cccc(Nc2nc3cc(-c4nnn[nH]4)ccc3c3sccc23)c1
Between P and Q , which one shows the smaller inhibition at 0.5 µM number? Pick one; state its label.
Q
(Q: 29.6%, P: 75.4%)

I: COc1ccc(Nc2nc3cc(C(=O)O)ccc3c3sccc23)cc1Cl
II: COC(=O)c1ccc2c(c1)[nH]c(=O)c1ccncc12 [drawing 1390]
Hello, I am sorting some records. Could you say if I or II has the smaller inhibition at 0.5 µM value? In your reply, give the label of the chosen option.
I
(I: -2.65%, II: 0.802%)

###

Test system: K-562
Run Description: Cell proliferation modulatory activity, K-562
Assay type: cell-based
Measurement Setup: Homo sapiens, K562; Table 45; read-out: K-562 IC50
Property Label: IC50

Below: 5 molecules and their reported IC50.
• Fc1ccc(Cl)cc1Nc1nc2c(-c3nnc[nH]3)cccc2c2cnccc12 = < 5 µM
• Cc1ccc(F)cc1Nc1nc2c(-c3nnc[nH]3)cccc2c2cnccc12 = > 10 µM
• C#Cc1cccc(Nc2nc3c(-c4nnc[nH]4)cccc3c3cnccc23)c1 = < 5 µM
• Fc1ccccc1Nc1nc2c(-c3nnc[nH]3)cccc2c2cnccc12 = < 0.5 µM
• COc1cccc(Nc2nc3c(-c4nnc[nH]4)cccc3c3cnccc23)c1 = < 5 µM

Any idea what IC50 came out for COCCOc1cccc(Nc2nc3c(-c4nnc[nH]4)cccc3c3cnccc23)c1 on K-562?
> 10 µM

###

Recorded IC50 by entry
System: K-562
Run Description: Cell proliferation modulatory activity, K-562
Type: cell-based
Measurement Setup: Homo sapiens, K562; K-562 cells

• O=C(O)c1ccc2c(c1)nc(Nc1ccccc1)c1cnccc12 = > 10 µM
• N#Cc1ccc2c(c1)nc(NCC1CCCN1)c1ccsc12 (stereo not shown) = > 10 µM
• Fc1ccc(Nc2nc3cc(-c4nnn[nH]4)ccc3c3cscc23)cc1Cl = > 10 µM
• CN(C)CCNc1nc2cc(C(N)=O)ccc2c2sccc12 = 0.198 µM

What value of measured IC50 is listed for Cc1ccccc1Nc1nc2cc(C(=O)N(C)C)ccc2c2cnc(NC3CC3)nc12 ?
> 10 µM

Try this compound next: CN(C)C1CCN(c2nc3cc(C#N)ccc3c3sccc23)CC1
> 10 µM

Similarly, CN(C)C(=O)c1ccc2c(c1)nc(N(C)c1ccccc1)c1nc(NC3CC3)ncc12 ?
> 10 µM

What about Cn1cnnc1-c1cccc(Nc2nc3cc(C(=O)O)ccc3c3cnccc23)c1 ?
> 10 µM

Follow-up entry: O=C(O)c1ccc2c(c1)nc(NCCc1ccccc1)c1cnccc12
> 10 µM

And then COC(=O)c1ccc2c(c1)nc(NN)c1ccncc12 , what is it?
> 10 µM

Here is the next compound: Cn1nc(C2CC2)cc1Nc1nc2cc(C(=O)O)ccc2c2cnccc12
> 10 µM

Continue with Clc1nc2ccccc2c2cnccc12
> 10 µM

Could you do the same for c1ccc(CNc2nc3cc(-c4nnn[nH]4)ccc3c3sccc23)nc1 , please?
> 10 µM
